Every entry's value here was drawn from PubChem BioAssay.

biological target: Voltage-gated potassium channel subunit beta-2 (Rattus norvegicus) (UniProt P62483); assay: enhancers of rat Kvbeta2 NADPH turnover – biochemical, NADPH fluorescence, primary screen (AID 623); conditions: Recombinant KvBeta, NADPH fluorescence decrease slope, 10 min; at 10 µM; stronger effect = lower value;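 note: fluorescence intensity change per second fitted from 20 to 320 s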
Sequence (P62483 whole entry, looked up): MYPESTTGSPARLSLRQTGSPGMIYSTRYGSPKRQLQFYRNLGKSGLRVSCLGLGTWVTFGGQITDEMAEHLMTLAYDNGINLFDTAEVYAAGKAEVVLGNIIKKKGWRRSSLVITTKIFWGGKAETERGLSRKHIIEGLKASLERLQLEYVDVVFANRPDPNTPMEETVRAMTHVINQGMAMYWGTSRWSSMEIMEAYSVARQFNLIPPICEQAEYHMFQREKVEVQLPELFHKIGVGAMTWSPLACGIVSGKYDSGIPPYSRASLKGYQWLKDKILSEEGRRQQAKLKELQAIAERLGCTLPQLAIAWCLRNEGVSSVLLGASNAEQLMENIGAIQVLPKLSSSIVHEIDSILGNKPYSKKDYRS
Measured NADPH fluorescence slope values are reported for all entries that follow.

MOLECULE | NADPH fluorescence slope
CCCCN(CC)CCCNC(=O)CS(=O)(=O)Cc1nc(-c2cccc(OC)c2)oc1C | 4e-05
Cc1cccc(N2CCN(C(=O)C3CCCN(S(=O)(=O)c4c(C)noc4C)C3)CC2)c1C (stereo not drawn) | -2.7e-05
CN1/C(=C\C(=O)Nc2cccnc2)c2ccccc2CC1(C)C | -4.2e-05
Cc1ccc(NC(=O)CC2C(=O)NC3CCCCC3N2C(=O)c2ccc(F)cc2)cc1C (stereo not drawn) | 2.4e-05
COCCN(Cc1cc2cccc(C)c2[nH]c1=O)C(=O)c1ccccc1 | -5.9e-05
Cc1cc(NC(=O)COC(=O)C2COc3ccccc3O2)no1 (stereo not drawn) | -7.6e-05
CC1=CCC2C(=O)N(c3nc(C)cc(C)n3)C(=O)C2C1 (stereo not drawn) | -7.2e-05
CC(NC(=O)C1CC1)C(c1cccs1)N1CCN(c2ccccc2)CC1 (stereo not drawn) | -3e-05
O=C(CCN1C(=O)c2ccccc2C1=O)N1CCN(C(=O)c2ccccc2)CC1 | -4.1e-05
COc1cc(C(=O)N2CCC(NC(=O)C(Cc3ccc(C)cc3)NC(C)=O)CC2)cc(OC)c1OC (stereo not drawn) | -4.4e-05
Cn1c(C(=O)NCCN2CCN(c3ccccc3F)CC2)cc2c(=O)n(C)c3ccccc3c21 | -2.1e-05
COc1ccc2c(c1)OC(O)(C(F)F)CC2=O (stereo not drawn) | 2.1e-05
CC(=O)c1ccc(-n2nnnc2SCC(=O)N2CCc3ccccc3C2)cc1 | 2.1e-05
CCCCNC(=O)c1nc2ncc(Br)cn2n1 | -7.5e-05
COc1ccccc1Nc1nc(N)nc(-c2cc3ccccc3o2)n1 | -3.9e-05
CCCn1c(=NC(C)=O)c(C#N)cc2c(=O)n3cccc(C)c3nc21 | -1e-05
Cn1cnc2c1c(=O)n(Cc1cccc(Br)c1)c(=O)n2C | 8.1e-07
Cc1cc(C(=O)Nc2nc3c(s2)CCCC3)cs1 | 1.1e-05
CC(C)n1c(NCc2c[nH]c3ccccc23)nc2ccccc21 | -4.3e-05
CC(C)CCNC(=O)NC(=O)COc1ccccc1C#N | -8.5e-06
O=C(Cn1c(=O)n(CC2CCCO2)c(=O)c2ccccc21)c1ccccc1 (stereo not drawn) | -3.9e-05
Cn1c(=O)[nH]c(=O)c2c1nc(NC1CCCCC1)n2CC(=O)NC1CCCCC1 | 8.4e-06
CCC(=O)Nc1c2c(nn1-c1ccccc1C)CSC2 | -1.7e-05

* * *

test: reduction of polyQ htt aggregates in cells – imaging, exon1htt(103Q)mCFP cells, high-content imaging, primary screen (AID 483); conditions: exon1htt(103Q)mCFP cell line, aggregate imaging, at 2 µM; measured here: cell count, toxicity;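 note: compound exposure lasted 3 days before fixation; percent of the per-plate median nuclei count of sample wells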

COMPOUND | nuclei count (%)
CN1C(=O)C(CC(=O)N2CCN(C(c3ccccc3)c3ccccc3)CC2)N(C)C1=O (stereo unspecified) | 97.2
COc1ccc(N2CCN(Cc3nc(-c4ccc(Cl)cc4Cl)no3)CC2)cc1 | 106
Cn1nnnc1SCc1cn2cccnc2n1 | 97.2
COCc1[nH]nc2c1C(c1cc(OC)c(O)c(OC)c1)C(C#N)=C(N)O2 (stereo unspecified) | 115
O=c1cnnc(NCc2ccccc2)[nH]1 | 99.5
Brc1ccc(-c2csc(/N=C/N3CCOCC3)n2)cc1 | 97.4
CCCCc1n[nH]c2c1C(=O)CC(C)(C)C2 | 113
C/C(N)=C(/C#N)C(=O)COC(=O)c1cc(C)n(-c2ccc(F)cc2)c1C | 116
CCOC(=O)c1ccccc1NC(=O)c1cccnc1 | 117
CS(=O)(=O)N1CCCC(C(=O)N2CCOCC2)C1 (stereo unspecified) | 92
CCOC(=O)CC1=C(C(=O)OCC)C(c2ccc(C)o2)C(C#N)=C(N)O1 (stereo unspecified) | 91.9
